# experiment-summary: enzyme screen for hydrolysis/methanolysis of butyl-KLG (HPLC of products and remaining substrate)
# Format: biochemical
# Design: unit: ppm
# condition-context: Table 8: 38° C., 21 Hours, 8.6% Methanol-Water, 0.2 M MES
metric-name: ASA formed (ppm)
# value in ppm; strip the unit string

Task: So what does the record say about ASA formed for Humicola lanuginosa Lipase: Humicola lanuginosa Lipase (protein, UniProt O59952 23-291, looked up) Lipase: EVSQDLFNQFNLFAQYSAAAYCGKNNDAPAGTNITCTGNACPEVEKADATFLYSFEDSGVGDVTGFLALDNTNKLIVLSFRGSRSIENWIGNLNFDLKEINDICSGCRGHDGFTSSWRSVADTLRQKVEDAVREHPDYRVVFTGHSLGGALATVAGADLRGNGYDIDVFSYGAPRVGNRAFAEFLTVQTGGTLYRITHTNDIVPRLPPREFGYSHSSPEYWIKSGTLVPVTRNDIVKIEGIDATGGNNQPNIPDIPAHLWYFGLIGTCL ?
Result: 10
